# tested.on: SaSiaT (Staphylococcus aureus)
# Sequence (A0A0H2XJ46 entry or part of it): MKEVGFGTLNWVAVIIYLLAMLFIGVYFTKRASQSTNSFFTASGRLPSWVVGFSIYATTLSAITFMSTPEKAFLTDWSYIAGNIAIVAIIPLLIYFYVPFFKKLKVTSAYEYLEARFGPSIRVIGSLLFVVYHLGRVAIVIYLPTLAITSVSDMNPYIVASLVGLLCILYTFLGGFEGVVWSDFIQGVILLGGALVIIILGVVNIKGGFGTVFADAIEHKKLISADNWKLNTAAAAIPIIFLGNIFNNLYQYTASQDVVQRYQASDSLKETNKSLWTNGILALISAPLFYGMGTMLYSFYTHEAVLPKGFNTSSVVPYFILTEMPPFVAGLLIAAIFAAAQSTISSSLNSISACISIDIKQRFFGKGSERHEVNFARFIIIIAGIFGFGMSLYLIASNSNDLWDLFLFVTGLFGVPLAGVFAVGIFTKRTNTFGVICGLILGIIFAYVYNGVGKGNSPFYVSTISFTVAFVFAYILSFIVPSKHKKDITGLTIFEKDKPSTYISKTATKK
# protocol.notes: nanoDSF thermal shift assay, SaSiaT
# Format: binding
# recorded.conditions: SaSiaT Tm, average of experiment 1
reported.endpoint: Average 1 (°C)

molecule: O=C(CCl)NC1C(O)CC(O)(C(=O)O)OC1C(O)C(O)CO (centres unmarked)
tested.on: SaSiaT (Staphylococcus aureus)
Average 1, °C: 49.0
//
molecule: CC(=O)N[C@H]1[C@H]([C@H](O)[C@H](O)CO)OC(O)(C(=O)O)C[C@@H]1O (some centres unmarked) [Neu5Ac, 5-N-acetyl neuraminic acid, reference compound]
tested.on: SaSiaT (Staphylococcus aureus)
Average 1, °C: 51.3
//
molecule: CCSCC(O)C(O)C1OC(O)(C(=O)O)CC(O)C1NC(C)=O (centres unmarked)
tested.on: SaSiaT (Staphylococcus aureus)
Average 1, °C: 49.9
//
molecule: CC(=O)NC1C(O)CC(O)(C(=O)O)OC1C(O)C(O)CCl (centres unmarked)
tested.on: SaSiaT (Staphylococcus aureus)
Average 1, °C: 48.9
//
molecule: O=C(Cc1ccccc1)NC1C(O)CC(O)(C(=O)O)OC1C(O)C(O)CO (centres unmarked)
tested.on: SaSiaT (Staphylococcus aureus)
Average 1, °C: 51.2
//
molecule: CC(=O)NC1C(O)CC(O)(C(=O)O)OC1C(O)C(O)CI (centres unmarked)
tested.on: SaSiaT (Staphylococcus aureus)
Average 1, °C: 49.3
//
molecule: CSCC(O)C(O)C1OC(O)(C(=O)O)CC(O)C1NC(C)=O (centres unmarked)
tested.on: SaSiaT (Staphylococcus aureus)
Average 1, °C: 51.0
//
molecule: O=C(CO)N[C@H]1[C@H]([C@H](O)[C@H](O)CO)OC(O)(C(=O)O)C[C@@H]1O (some centres unmarked) [Neu5Gc, 5-N-glycolyl neuraminic acid, reference compound]
tested.on: SaSiaT (Staphylococcus aureus)
Average 1, °C: 53.3
